# assayDetails: DPPH microplate assay (radical scavenging activity)
# assayConditions: mean ± SEM (n = 3)
experimentalReadout: Antioxidant IC50 (radical scavenging activity) (µg/mL)

{"columns": ["compound", "valueUnit", "result"],
 "data": [
  ["Cc1c(C)c2c(c(C)c1O)CCC(C)(C(=O)O)O2 (stereo not shown) [Trolox, reference compound]", "µg/mL", 12.54],
  ["O=c1c(O)c(-c2ccc(O)c(O)c2)oc2cc(O)cc(O)c12 [Quercetin, 3,3′,4′,5,7-pentahydroxyflavone]", "µg/mL", 3.18],
  ["O=C1O[C@H]([C@@H](O)CO)C(O)=C1O [Ascorbic acid, reference compound]", "µg/mL", 10.52],
  ["O=C(O)c1cc(O)c(O)c(O)c1", "µg/mL", 4.83]
]}

###

# assayDetails: in vitro
# Type: cell-based
# assayConditions: mouse
experimentalReadout: IC50 at 18 h

{"columns": ["compound", "result"],
 "data": [
  ["O=c1c(O)c(-c2ccc(O)c(O)c2)oc2cc(O)cc(O)c12 [Quercetin, 3,3′,4′,5,7-pentahydroxyflavone]", "> 10 µM"]
]}

###

# assayDetails: in vitro
# Type: cell-based
# assayConditions: mouse; 1 nM, 24 h treatment, relative to control (100%); read-out: % cell viability of cultured neurons

{"columns": ["molecule", "viability at 24 h, 0.001 µM"],
 "data": [
  ["O=c1c(O)c(-c2ccc(O)c(O)c2)oc2cc(O)cc(O)c12 [Quercetin, 3,3′,4′,5,7-pentahydroxyflavone]", "> 100%"]
]}
